target: HA of A/Fort Monmouth/1/47 (H1N1) (influenza A virus); test: cell-based or functional assay
Value kind: Neutralization IC50, H1-FM47 (µg/mL)
Answers are plain numbers, in µg/mL.

Some binders with recorded Neutralization IC50, H1-FM47:
INSERT INTO results (binder, value_kind, observed) VALUES
  ('Antibody 15 (antibody, V domains shown) VH: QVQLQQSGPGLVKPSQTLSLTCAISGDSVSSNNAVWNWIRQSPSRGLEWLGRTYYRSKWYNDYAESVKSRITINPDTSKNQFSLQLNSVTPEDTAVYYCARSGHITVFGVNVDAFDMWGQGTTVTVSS VL: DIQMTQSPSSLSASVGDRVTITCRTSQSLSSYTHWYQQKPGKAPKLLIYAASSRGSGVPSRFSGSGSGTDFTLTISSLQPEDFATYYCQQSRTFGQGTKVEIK', 'Neutralization IC50, H1-FM47', 0.35),
  ('Antibody 13 (antibody, V domains shown) VH: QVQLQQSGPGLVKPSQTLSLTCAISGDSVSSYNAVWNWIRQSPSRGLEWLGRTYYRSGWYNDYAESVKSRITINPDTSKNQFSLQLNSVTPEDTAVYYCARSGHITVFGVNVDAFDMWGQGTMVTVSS VL: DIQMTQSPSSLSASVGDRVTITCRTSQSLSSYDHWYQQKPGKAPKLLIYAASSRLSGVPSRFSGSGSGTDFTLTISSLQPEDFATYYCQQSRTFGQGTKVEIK', 'Neutralization IC50, H1-FM47', 0.5);

Would you be so kind as to report Neutralization IC50, H1-FM47 for each listed record?
1. Antibody 12 (antibody, V domains shown) VH: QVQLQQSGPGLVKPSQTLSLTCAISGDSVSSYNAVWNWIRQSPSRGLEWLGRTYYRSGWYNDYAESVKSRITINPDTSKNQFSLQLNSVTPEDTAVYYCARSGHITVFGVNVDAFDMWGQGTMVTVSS VL: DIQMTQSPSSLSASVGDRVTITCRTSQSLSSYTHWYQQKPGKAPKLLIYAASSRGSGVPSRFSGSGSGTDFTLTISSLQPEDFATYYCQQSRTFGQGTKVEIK
2. Antibody 3 (antibody, V domains shown) VH: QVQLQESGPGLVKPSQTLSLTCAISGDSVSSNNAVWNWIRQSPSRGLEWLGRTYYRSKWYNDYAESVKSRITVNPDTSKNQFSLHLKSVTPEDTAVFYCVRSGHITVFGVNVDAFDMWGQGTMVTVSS VL: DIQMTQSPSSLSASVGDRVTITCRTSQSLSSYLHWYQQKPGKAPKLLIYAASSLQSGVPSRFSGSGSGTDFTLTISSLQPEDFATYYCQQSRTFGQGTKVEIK
3. Antibody 11 (antibody, V domains shown) VH: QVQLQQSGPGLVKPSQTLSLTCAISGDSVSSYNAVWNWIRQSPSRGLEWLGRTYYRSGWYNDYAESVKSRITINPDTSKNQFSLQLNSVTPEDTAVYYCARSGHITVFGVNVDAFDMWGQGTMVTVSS VL: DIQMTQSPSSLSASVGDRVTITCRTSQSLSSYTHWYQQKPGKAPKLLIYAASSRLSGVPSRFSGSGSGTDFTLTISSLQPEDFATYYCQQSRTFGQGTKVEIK

a:
0.28
1.04
0.43

Looking up Antibody 14 (antibody, V domains shown) VH: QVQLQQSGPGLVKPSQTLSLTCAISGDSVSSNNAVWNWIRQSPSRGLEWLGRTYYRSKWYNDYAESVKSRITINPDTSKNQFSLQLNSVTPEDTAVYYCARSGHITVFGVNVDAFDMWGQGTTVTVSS VL: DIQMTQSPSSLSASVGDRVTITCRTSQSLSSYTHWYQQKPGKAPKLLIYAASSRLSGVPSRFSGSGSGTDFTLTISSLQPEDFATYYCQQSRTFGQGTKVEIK , I found its Neutralization IC50, H1-FM47 recorded as 0.44
